# assaySummary: qHTS Assay for NPC1 Promoter Activators; note: nearly all actives have a fitted effect of over 60% in size
# measurementContext: Huh7 NPC1 promoter luciferase reporter, 24 h; series mostly up to 9.22 µM
Out of some 320,000 compounds screened, about 7,600 (2.4%) were called active. Not shown: some 3% with an inconclusive outcome. Calls come from the whole dose curve; as a rule, active = well fitted activation curve with a large enough effect; inconclusive = small, poorly fitted or top-dose-only effect; inactive = no such curve, though single readings can be large or run the other way. This is one part of a sample in which actives are shown more often than they occur.
Labels: active, inactive

compound | categoryLabel
O=C(CNC(=O)c1cccs1)N/N=C/c1cccc(Br)c1 | inactive
CC(=O)Cn1cnc2c(cnn2-c2ccccc2)c1=O | inactive
COc1cccc(C(=O)NCCSc2ccc(Br)cc2)c1 | inactive
O=C(Nc1ccccc1-c1nc2ccccc2[nH]c1=O)c1cccs1 | inactive
NC(=O)C1CCN(C(=O)c2ccc(F)c(S(=O)(=O)N3CCOCC3)c2)CC1 | inactive
CCn1c(NC(=O)c2nn(C)cc2Br)nc2ccccc21 | inactive
CCc1ccc(C(=O)N2CCN(S(=O)(=O)c3sc(C(=O)O)c(C)c3C(=O)O)CC2)cc1 | inactive
CCN(C(=O)CSc1ncnc2sccc12)c1c(N)n(Cc2ccccc2)c(=O)[nH]c1=O | inactive
CN(C(=O)COc1ncnc2c1cnn2-c1ccccc1)C1CCCCC1 | inactive
CN1CCN(S(=O)(=O)c2ccc(N3CCN(c4ccccc4O)CC3)c([N+](=O)[O-])c2)CC1 | inactive
O=S(=O)(NCc1ccccc1Br)c1ccccc1Br | inactive
CSc1ccccc1OCc1cc(C(=O)N(C)CCc2c(C)n[nH]c2C)no1 | inactive
c1ccc(-n2ncc3c2ncn2c(C4CCCCC4)nnc32)cc1 | active
COc1ccccc1N1CCN(CC(=O)Nc2ccnn2C2CCCC2)CC1 | inactive
COc1ccc(CNC(=O)COC(=O)c2c(C)nn(-c3ccccc3)c2C)cc1OC | inactive
O=C1C=C(c2cc(C(F)(F)F)cc(C(F)(F)F)c2)C[C@@H](c2ccc3c(c2)OCO3)C1 | inactive
C/C(=N\Nc1nc2ccccc2[nH]1)c1cccs1 | active
CCN(CC)c1ccc(/C=N/NC(=O)CNC(=O)c2cccs2)cc1 | inactive
CC(C)CN(C(=O)CSc1nncn1C)C1CCS(=O)(=O)C1 (configuration not stated) | inactive
CCC[C@H]1CCCC/C=C\CCCC(=O)OCCN1C(=O)OC(C)(C)C | inactive
COc1ccc(C(=O)NCc2nnc(SCCOc3ccccc3)n2C)cc1 | inactive
CSc1ccccc1OCc1cc(C(=O)N2C[C@H]3CC[C@H]2C3)no1 | active

* * *

# assaySummary: qHTS Assay for NPC1 Promoter Activators; note: nearly all actives have a fitted effect of over 60% in size;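 for activation: reporter is driven by a mutant NPC1 promoter; % of control where 0% means no effect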
# measurementContext: Huh7 NPC1 promoter luciferase reporter, 24 h; series mostly up to 9.22 µM
In all, about 320,000 compounds went through this assay and about 7,600 (2.4%) were called active. Not shown: some 3% with an inconclusive outcome. The call rests on the fitted dose curve; in most records, active means well fitted activation curve with a large enough effect; inconclusive means small, poorly fitted or top-dose-only effect; inactive means no such curve, though single readings can be large or run the other way. The list comes from a sample in which actives are over-represented; it also holds close analogues and randomly drawn compounds.
Labels: 1.0 for active, 0.0 for inactive

compound | categoryLabel
O=C(O)Cc1sc(-c2ccccc2)nc1-c1cccs1 | 0.0
O=c1ccc2c(-c3ccccc3S(=O)(=O)O)c3ccc(O)c(O)c3oc-2c1O | 0.0
COc1ccccc1NC(=O)COC(=O)COc1ccccc1F | 0.0
O=C(NCCC1=CCCCC1)C1CCN(Cc2cnn(-c3ccccc3)c2-n2cccc2)CC1 | 0.0
COc1ccc(-c2nc(SCC(=O)N3CCCC3)n[nH]2)cc1 | 0.0
COC(=O)c1cc(Oc2ccc(S(=O)(=O)N3CCOCC3)cc2[N+](=O)[O-])cc(C(=O)OC)c1 | 0.0
COc1cccc(CC(=O)Nc2ccc(-c3csc(C)n3)cc2)c1 | 0.0
O=C(NNc1ncnc2c1cnn2-c1ccccc1)c1ccco1 | 0.0
COc1ccc(-c2csc(Cc3nc(O)cs3)n2)cc1 | 1.0
CC(C)Sc1ncnc2c1cnn2-c1ccccc1 | 1.0
O=C(NCCc1ccc(F)cc1)c1ccc(S(=O)(=O)N2CCCCC2)cc1 | 0.0
COC(=O)C1=C(C)NC(=S)NC1c1ccc(OCC(=O)N2CC(C)OC(C)C2)c(OC)c1 (stereo not drawn) | 0.0
NC(=O)Cc1ccc2c(c1)[nH]c1ccccc12 | 0.0
NC(=O)Cc1ccc2sc(-c3ccccc3)nc2c1 | 1.0
COc1cc(C(c2c(NC(=O)c3ccco3)sc(C)c2C)N2CCOCC2)cc(OC)c1OC (stereo not drawn) | 0.0
CC(OC(=O)/C=C/c1ccccc1)C(=O)NC1CCCCC1C (stereo not drawn) | 0.0
CCC(C)N(C(=O)CSc1ncnc2c1cnn2-c1ccccc1)C1CCS(=O)(=O)C1 (stereo not drawn) | 0.0
COc1cccc(NC(=O)CN(C)CC(=O)c2c(N)n(Cc3ccccc3)c(=O)n(C)c2=O)c1 | 0.0
Cc1cccc(NC(=O)NC(=S)NC(=O)c2ccccc2)c1 | 0.0
CC(C)(C)C(=O)OCc1nc(-c2ccc(O)c(O)c2)cs1 | 0.0
CCC1(C)CC(=O)NC1=O (stereo not drawn) | 0.0
CC(C)C(NC(=O)c1c(F)cccc1F)C(=O)NCc1ccncc1 (stereo not drawn) | 0.0
O=C(COC(=O)Cn1[nH]c(=O)c2ccccc2c1=O)Nc1ncc(Cl)cc1Cl | 0.0

* * *

# assaySummary: qHTS Assay for NPC1 Promoter Activators; note: nearly all actives have a fitted effect of over 60% in size;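 for activation: reporter is driven by a mutant NPC1 promoter; % of control where 0% means no effect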
# measurementContext: Huh7 NPC1 promoter luciferase reporter, 24 h; series mostly up to 9.22 µM
The campaign covered roughly 320,000 compounds. About 7,600 (2.4%) were called active. Roughly 3% stayed inconclusive and do not appear here. Calls come from the whole dose curve; as a rule, active = well fitted activation curve with a large enough effect; inconclusive = small, poorly fitted or top-dose-only effect; inactive = no such curve, though single readings can be large or run the other way. The entries come from a sample that favours actives as a whole.
Labels: 1 = active, 0 = inactive

compound | categoryLabel
CCOc1ccc(N/C=C/C(=O)c2ccccc2)cc1 | 1
C=CCN1C(=O)C(Cc2cccc(Cl)c2)S/C1=N/N=C/c1ccco1 (stereo unspecified) | 0
COc1ccc(CN2C(=O)C(C)S/C2=N/N=C/c2ccco2)cc1 (stereo unspecified) | 1
O=C1N/C(=N\N=C\c2ccco2)SC1Cc1ccc(F)cc1 (stereo unspecified) | 0
Cc1ccc(N/C=C/C(=O)c2ccccc2)cc1C | 1
Cc1cccc(NC(=O)Nc2ccc(OCc3ccccc3)cc2)n1 | 0

* * *

# assaySummary: qHTS Assay for NPC1 Promoter Activators; note: nearly all actives have a fitted effect of over 60% in size;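 for activation: reporter is driven by a mutant NPC1 promoter; % of control where 0% means no effect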
# measurementContext: Huh7 NPC1 promoter luciferase reporter, 24 h; series mostly up to 9.22 µM
Hit rate of the full screen: of about 320,000 compounds, about 7,600 (2.4%) were called active. Inconclusive results (about 3%) are left out. Calls come from the whole dose curve; as a rule, active = well fitted activation curve with a large enough effect; inconclusive = small, poorly fitted or top-dose-only effect; inactive = no such curve, though single readings can be large or run the other way. The sample holds actives, similar compounds and a random draw of the others, so the mix is not that of the screen.
Labels: active, inactive

compound | categoryLabel
O=C(Nc1ccccc1N1CCN(c2ccccc2)CC1)c1cccc(F)c1 | inactive
Cc1ccccc1-c1cc(C(=O)NCC2CC2)n(CC2CC(c3cccnc3)=NO2)n1 (stereo unspecified) | inactive
O=C(Nc1cccc(NC(=O)c2cccc(F)c2)c1)c1ccccc1 | inactive
CS(=O)(=O)N1CCc2nc(-c3ccccc3)sc2C1 | active
CCN(CC)CCCNC(=S)N(CCO)Cc1cc2cc3c(cc2[nH]c1=O)OCO3 | inactive
CS(=O)(=O)N1CCN(C(=O)Cc2ccccc2)CC1 | inactive
CCN(CC(=O)Nc1ccc(OC)cc1)C(=O)c1ccc(=O)n(Cc2ccccc2)n1 | inactive
CCCCSc1nnc(-c2ccc(NC(=O)CC)cc2)n1C | inactive
Cc1nn(Cc2ccccc2)c(C)c1C(=O)NCCCN1CCCC1=O | inactive
N#CCCN(C(=O)COC(=O)C1CCN(c2ccc(C(F)(F)F)cn2)CC1)c1ccc(F)cc1 | inactive
CSc1nc2ccc(NC(=O)c3c(F)cccc3F)cc2s1 | active

* * *

# assaySummary: qHTS Assay for NPC1 Promoter Activators; note: nearly all actives have a fitted effect of over 60% in size;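 for activation: reporter is driven by a mutant NPC1 promoter; % of control where 0% means no effect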
# measurementContext: Huh7 NPC1 promoter luciferase reporter, 24 h; series mostly up to 9.22 µM
# From the text: NIH Chemical Genomics Center [NCGC] NIH Molecular Libraries Probe Production centers Network [MLPCN] […] The NPC1 promoter is cloned in front of the luciferase reporter gene, therefore NPC promoter activation results in luciferase expression. […] 7.#Read using the luminescence protocol on the ViewLux plate reader (Perkin Elmer).
The whole screen tested about 320,000 compounds, of which about 7,600 (2.4%) were called active. Another 3% or so got no clear call; they are omitted. Calls follow the shape of the dose curve; as a rule, active = well fitted activation curve with a large enough effect; inconclusive = small, poorly fitted or top-dose-only effect; inactive = no such curve, though single readings can be large or run the other way. This is one part of a sample in which actives are shown more often than they occur.
Labels: 1 (yes) = active, 0 (no) = inactive

compound | categoryLabel
O=C(Nc1ccccn1)C1CCN(S(=O)(=O)c2ccc3c(c2)OCCO3)CC1 | 0 (no)
CSc1ncccc1C(=O)NC1CCCCCC1 | 0 (no)
CC(=O)Nc1ccc(SC[C@H](Cc2ccccc2)N2CC[C@@H](C)CCC2=O)cc1 | 0 (no)
O=C(c1ccc(Cl)nc1)N1CCN(S(=O)(=O)c2ccc3c(c2)OCCO3)CC1 | 0 (no)
CSc1ncccc1C(=O)Nc1ccc2c(c1)OCO2 | 0 (no)
CCOC(=O)c1sc(NC(=O)COc2ncnc3ccccc23)c(C(=O)OCC)c1C | 0 (no)
CCC(=O)Nc1sc(C(=O)Nc2ccccc2)c(C)c1C(=O)OC | 1 (yes)
CCn1ccnc1CN(C)C(=O)c1cc(COc2ccc(-n3cncn3)cc2)on1 | 0 (no)
Cc1cccc(NS(=O)(=O)c2ccc(C)c(C(=O)NCC(c3ccccc3)N(C)C)c2)c1 (stereo unspecified) | 0 (no)
O=c1cc(CCl)nc2scc(-c3ccccc3)n12 | 0 (no)
CN(CCOc1ccccc1)C(=O)c1cc(COc2c(F)cccc2F)on1 | 0 (no)
